Recorded values, source ChEMBL document CHEMBL1140354.

# Test system: HL-60
# PROTOCOL DESCRIPTION: In vitro antitumor activity against humanHL-60 tumor cell line
# Format: functional, cell-based
# REPORTED CONDITIONS: Homo sapiens
ASSAY METRIC: pIC50
FYI, pIC50 means -log10 of a concentration in mol per litre.

[
  {
    "CHEMICAL SMILES": "Cc1c(N)nc([C@H](CC(N)=O)NC[C@H](N)C(N)=O)nc1C(=O)N[C@H](C(=O)N[C@H](C)[C@@H](O)[C@H](C)C(=O)N[C@H](C(=O)NCCc1nc(-c2nc(C(=O)NCCCNCCCCNC(=O)[C@H](CC(C)C)NC(=O)[C@H](N)C(C)C)cs2)cs1)[C@@H](C)O)[C@@H](O[C@@H]1O[C@@H](CO)[C@@H](O)[C@H](O)[C@@H]1O[C@H]1O[C@H](CO)[C@@H](O)[C@H](OC(N)=O)[C@@H]1O)c1c[nH]cn1",
    "ASSAY METRIC": "pIC50",
    "NUMERIC VALUE": 6.57
  },
  {
    "CHEMICAL SMILES": "Cc1c(N)nc([C@H](CC(N)=O)NC[C@H](N)C(N)=O)nc1C(=O)N[C@H](C(=O)N[C@H](C)[C@@H](O)[C@H](C)C(=O)N[C@H](C(=O)NCCc1nc(-c2nc(C(=O)NCCCNCCCCNC(=O)[C@H](N)CC(C)C)cs2)cs1)[C@@H](C)O)[C@@H](O[C@@H]1O[C@@H](CO)[C@@H](O)[C@H](O)[C@@H]1O[C@H]1O[C@H](CO)[C@@H](O)[C@H](OC(N)=O)[C@@H]1O)c1c[nH]cn1",
    "ASSAY METRIC": "pIC50",
    "NUMERIC VALUE": 6.43
  },
  {
    "CHEMICAL SMILES": "Cc1c(N)nc([C@H](CC(N)=O)NC[C@H](N)C(N)=O)nc1C(=O)N[C@H](C(=O)N[C@H](C)[C@@H](O)[C@H](C)C(=O)N[C@H](C(=O)NCCc1nc(-c2nc(C(=O)NCCCNCCCCN)cs2)cs1)[C@@H](C)O)[C@@H](O[C@@H]1O[C@@H](CO)[C@@H](O)[C@@H](O)[C@@H]1O[C@H]1O[C@H](CO)[C@@H](O)[C@H](OC(N)=O)[C@@H]1O)c1c[nH]cn1",
    "ASSAY METRIC": "pIC50",
    "NUMERIC VALUE": 6.60
  },
  {
    "CHEMICAL SMILES": "Cc1c(N)nc([C@H](CC(N)=O)NC[C@H](N)C(N)=O)nc1C(=O)N[C@H](C(=O)N[C@H](C)[C@@H](O)[C@H](C)C(=O)N[C@H](C(=O)NCCc1nc(-c2nc(C(=O)NCCCNCCCCNC(=O)[C@H](CCCCN)NC(=O)[C@H](N)C(C)C)cs2)cs1)[C@@H](C)O)[C@@H](O[C@@H]1O[C@@H](CO)[C@@H](O)[C@H](O)[C@@H]1O[C@H]1O[C@H](CO)[C@@H](O)[C@H](OC(N)=O)[C@@H]1O)c1c[nH]cn1",
    "ASSAY METRIC": "pIC50",
    "NUMERIC VALUE": 6.13
  },
  {
    "CHEMICAL SMILES": "Cc1c(N)nc([C@H](CC(N)=O)NC[C@H](N)C(N)=O)nc1C(=O)N[C@H](C(=O)N[C@H](C)[C@@H](O)[C@H](C)C(=O)N[C@H](C(=O)NCCc1nc(-c2nc(C(=O)NCCCNCCCCNC(=O)[C@H](CCCCN)NC(=O)[C@@H](CC(C)C)NC(=O)[C@@H](N)C(C)C)cs2)cs1)[C@@H](C)O)[C@@H](O[C@@H]1O[C@@H](CO)[C@@H](O)[C@H](O)[C@@H]1O[C@H]1O[C@H](CO)[C@@H](O)[C@H](OC(N)=O)[C@@H]1O)c1c[nH]cn1",
    "ASSAY METRIC": "pIC50",
    "NUMERIC VALUE": 7.15
  }
]

Please report the recorded pIC50 for "Cc1c(N)nc([C@H](CC(N)=O)NC[C@H](N)C(N)=O)nc1C(=O)N[C@H](C(=O)N[C@H](C)[C@@H](O)[C@H](C)C(=O)N[C@H](C(=O)NCCc1nc(-c2nc(C(=O)NCCCNCCCCNC(=O)[C@H](N)C(C)C)cs2)cs1)[C@@H](C)O)[C@@H](O[C@@H]1O[C@@H](CO)[C@@H](O)[C@H](O)[C@@H]1O[C@H]1O[C@H](CO)[C@@H](O)[C@H](OC(N)=O)[C@@H]1O)c1c[nH]cn1" . 6.51

Param item = "Cc1c(N)nc([C@H](CC(N)=O)NC[C@H](N)C(N)=O)nc1C(=O)N[C@H](C(=O)N[C@H](C)[C@@H](O)[C@H](C)C(=O)N[C@H](C(=O)NCCc1nc(-c2nc(C(=O)NCCCNCCCCNC(=O)[C@H](CCCCN)NC(=O)[C@@H](N)C(C)C)cs2)cs1)[C@@H](C)O)[C@@H](O[C@@H]1O[C@@H](CO)[C@@H](O)[C@H](O)[C@@H]1O[C@H]1O[C@H](CO)[C@@H](O)[C@H](OC(N)=O)[C@@H]1O)c1c[nH]cn1" ; retrieve measured pIC50. 6.01

Given the molecule "Cc1c(N)nc([C@H](CC(N)=O)NC[C@H](N)C(N)=O)nc1C(=O)N[C@H](C(=O)N[C@H](C)[C@@H](O)[C@H](C)C(=O)N[C@H](C(=O)NCCc1nc(-c2nc(C(=O)NCCCNCCCCNC(=O)[C@H](N)CCCCN)cs2)cs1)[C@@H](C)O)[C@@H](O[C@@H]1O[C@@H](CO)[C@@H](O)[C@H](O)[C@@H]1O[C@H]1O[C@H](CO)[C@@H](O)[C@H](OC(N)=O)[C@@H]1O)c1c[nH]cn1" , what is its reported pIC50? 6.29

Look at this molecule and give its reported pIC50. "Cc1c(N)nc([C@H](CC(N)=O)NC[C@H](N)C(N)=O)nc1C(=O)N[C@H](C(=O)N[C@H](C)[C@@H](O)[C@H](C)C(=O)N[C@H](C(=O)NCCc1nc(-c2nc(C(=O)NCCCNCCCCNC(=O)[C@H](CC(C)C)NC(=O)[C@@H](N)C(C)C)cs2)cs1)[C@@H](C)O)[C@@H](O[C@@H]1O[C@@H](CO)[C@@H](O)[C@@H](O)[C@@H]1O[C@H]1O[C@H](CO)[C@@H](O)[C@H](OC(N)=O)[C@@H]1O)c1c[nH]cn1" 6.20

Could you tell me which pIC50 is on file for "Cc1c(N)nc([C@H](CC(N)=O)NC[C@H](N)C(N)=O)nc1C(=O)N[C@H](C(=O)N[C@H](C)[C@@H](O)[C@H](C)C(=O)N[C@H](C(=O)NCCc1nc(-c2nc(C(=O)NCCCNCCCCNC(=O)[C@@H](N)C(C)C)cs2)cs1)[C@@H](C)O)[C@@H](O[C@@H]1O[C@@H](CO)[C@@H](O)[C@H](O)[C@@H]1O[C@H]1O[C@H](CO)[C@@H](O)[C@H](OC(N)=O)[C@@H]1O)c1c[nH]cn1" ? 6.18
